- MEASUREMENT_NOTES: NCI Yeast Anticancer Drug Screen. Data for the rad50 strain (AID 155);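 note: 0% = growth of vehicle-only cultures of the same strain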
- EXPERIMENTAL_PARAMETERS: S. cerevisiae rad50 strain growth inhibition; at 50.0 µM; hits give high values
Compounds without any hit were thinned out: in the full panel of roughly 79,000, 15% have a hit. Active and inactive are the calls of the source. Cut-off read from the data, not from the text of the source: active = growth inhibition above about 70%; inactive = the rest.
MEASUREMENT_NAME: growth inhibition

As a guide, the following entries are already answered.
CCC(=O)NC(C(=O)O)C(C)(C)S (configuration not stated)
-0.4% (inactive)
CC[C@H](O)[C@H](C)C=C1SCCCS1
-14.3% (inactive)

Provide the reported growth inhibition of each entry below, same order.
1. C/C(CC1CCCCC1)=N\NC(N)=O
2. O=C1CC(=O)N2CCCCC2N1 (configuration not stated)
3. CCOC(=O)C(Cl)(NC(=O)OCc1ccccc1)C(F)(F)F (configuration not stated)
4. CC(C)(C)N(OC(=O)c1ccc(C#N)cc1)c1ccccc1

**A:**
["0.25% (inactive)", "-17.7% (inactive)", "-21.8% (inactive)", "15.4% (inactive)"]

Look at each molecule and report its growth inhibition.
1. CCOC(=O)c1cnc(=S)[nH]c1N
2. Cc1ccc2c(c1)C(C)(C)C(C)C2(C)C (configuration not stated)

**A:**
1: 40.5% (inactive); 2: -3.05% (inactive)

Hi! Can you tell me growth inhibition for each of these molecules?
1. O=[N+]([O-])c1cccc(N=C2c3ccccc3CN2c2cccc([N+](=O)[O-])c2)c1
2. CC(=O)c1cc(C(C)=O)c(CC(=O)C(=O)Nc2cccc(C)c2C)nc1CC(=O)C(=O)Nc1cccc(C)c1C
3. Cc1ccc(C)[nH]1
4. COc1cc(C)c2c([N+](=O)[O-])cc([N+](=O)[O-])c(OC)c2n1

**A:**
1: -23.4% (inactive); 2: 2.9% (inactive); 3: -2.85% (inactive); 4: 12% (inactive)

Could you tell me growth inhibition for each of these molecules? They are listed below.
1. CC(=O)[C@@]1(O)CC[C@H]2[C@@H]3C[C@H](C)C4=CC(=O)CC[C@]4(C)[C@H]3[C@@H](O)C[C@@]21C
2. CC(C)/C(Cl)=N\OC(NC(=O)P(=O)(c1ccccc1)c1ccccc1)(C(F)(F)F)C(F)(F)F
3. O=c1c2c(oc3c(Cl)cc(Cl)cc13)CCCC2
4. CN(C)CC1CCC/C1=N/OC(=O)c1ccccc1 (configuration not stated)
5. CCOC(=O)c1c2ccc(/C=C/c3ccccc3)ccc-2c(C(=O)OCC)c1N

**A:**
-27.9% (inactive)
58.5% (inactive)
13.3% (inactive)
6.85% (inactive)
-16.6% (inactive)

Go through the items and report each one's growth inhibition.
1. O=C1OCC2C(=O)N3Cc4cc5ccccc5nc4C3CC12 (configuration not stated)
2. CC1(O)CCC2(CCC(C)(O)CC2=O)C(=O)C1 (configuration not stated)
3. O=C1c2ccccc2-c2nc(-c3ccncc3)cc3c2c1nc1ccccc13
4. COc1cc([C@@H]2c3cc4c(cc3[C@@H](Nc3ccc(NC(=O)c5cc(NC(=O)c6cc([N+](=O)[O-])cn6C)cn5C)cc3)[C@H]3COC(=O)[C@H]23)OCO4)cc(OC)c1O

**A:**
11.9% (inactive)
-7.85% (inactive)
25.6% (inactive)
34% (inactive)

**Q:** # growth inhibition lookup, item CC12CC(c3ccccc3)C(C)(C(c3ccccc3)=C1c1ccccc1)C2(O)c1ccccc1 (configuration not stated)
**A:** -2.85% (inactive)
